Test system: KM12
EXPERIMENTAL_DETAILS: NCI tumour cell line growth inhibition, 48 h
Calls of active or inactive are those of the source. No stated cut-off is given here; in the data, active = GI50 up to about 1.1 µM and inactive = higher.
RECORDED_ENDPOINT: GI50

CPD_SMILES: CN(C)C=[N+]=[N-]
ENDPOINT_RESULT: > 100 µM (inactive)
//
CPD_SMILES: NS(=O)(=O)c1ccc(Nc2c3ccccc3nc3c(C(=O)NCCCN(CCO)CCO)cccc23)cc1
ENDPOINT_RESULT: 16.7 µM (inactive)
//
CPD_SMILES: CN1C(=O)N(C)C2(CCN(CCCCCCF)CC2)C1=O
ENDPOINT_RESULT: > 100 µM (inactive)
//
CPD_SMILES: O/N=C(\CC(O)(C(F)(F)F)C(F)(F)F)c1cccc(Cl)c1
ENDPOINT_RESULT: 34.8 µM (inactive)

Provenance of the data: ChEMBL document CHEMBL1201862
